Target: T1, human CD73 (huCD73) protein, antigen of the Biacore assay (human, UniProt P21589 27-547, limits assumed)
T1 construct: also called human CD73 antigen
T1 sequence (looked up): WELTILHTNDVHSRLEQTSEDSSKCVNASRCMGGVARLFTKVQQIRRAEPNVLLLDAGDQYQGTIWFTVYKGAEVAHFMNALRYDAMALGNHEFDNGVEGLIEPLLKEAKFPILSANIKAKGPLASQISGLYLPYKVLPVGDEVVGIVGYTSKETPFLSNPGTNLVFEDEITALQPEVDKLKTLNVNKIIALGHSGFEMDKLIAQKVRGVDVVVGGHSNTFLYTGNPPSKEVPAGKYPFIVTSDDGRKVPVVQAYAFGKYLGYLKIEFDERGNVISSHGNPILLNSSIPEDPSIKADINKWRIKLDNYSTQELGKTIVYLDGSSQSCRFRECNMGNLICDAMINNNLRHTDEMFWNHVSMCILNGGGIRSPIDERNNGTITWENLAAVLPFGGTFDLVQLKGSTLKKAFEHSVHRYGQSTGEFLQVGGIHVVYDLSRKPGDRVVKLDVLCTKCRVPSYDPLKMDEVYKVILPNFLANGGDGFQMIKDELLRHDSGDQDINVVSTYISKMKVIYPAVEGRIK
Experiment: SPR Biacore T200; antibody captured on Protein A chip, CD73 in flow; 1:1 Langmuir
Kd for assorted binders

{"columns": ["binder", "unit", "Kd"],
 "data": [
  ["Hab110.21 (antibody, human IgG1, kappa, V domains shown, also called humanized antibody of mab110) VH: EVQLVQSGAEVKKPGASVKVSCKASGYTFTSYTMHWVRQAPGQRLEWMGYINPNSFYIEYNQKFKDRVTITRDTSASTAYMELSSLRSEDTAVYYCARGDYDLFYDMDNWGQGTTVTVSS VL: DIQMTQSPSSLSASVGDRVTITCRASQDIGNSLNWLQQKPGKAIKRLIYATFRLDSGVPSRFSGSRSGTEYTLTISSLQPEDFATYYCQQYASFPWTFGGGTKVEIKR", "nM", 0.0944],
  ["Hab127.31g (antibody, V domains shown, VL3 + VH1g, HCDR2 hot-spot variant; full-length antibody) VH: EVQLVQSGAEVKKPGASVKVSCKASGYTFTAYFMNWVRQAPGQGLEWMGRIYHQNVDTFYSQKFKGRVTMTVDKSTSTVYMELSSLRSEDTAVYYCATSYVGDWGQGTTVTVSS VL: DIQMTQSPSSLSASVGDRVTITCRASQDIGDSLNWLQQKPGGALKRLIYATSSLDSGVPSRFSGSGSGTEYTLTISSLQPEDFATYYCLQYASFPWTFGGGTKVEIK", "nM", 0.319],
  ["Hab127.31i (antibody, V domains shown, VL3 + VH1i, HCDR2 hot-spot variant; full-length antibody) VH: EVQLVQSGAEVKKPGASVKVSCKASGYTFTAYFMNWVRQAPGQGLEWMGRIYHHNVDTFYSQKFKGRVTMTVDKSTSTVYMELSSLRSEDTAVYYCATSYVGDWGQGTTVTVSS VL: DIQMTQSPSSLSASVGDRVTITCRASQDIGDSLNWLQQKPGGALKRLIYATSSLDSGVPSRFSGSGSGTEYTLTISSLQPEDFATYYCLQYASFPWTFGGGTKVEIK", "nM", 0.585]
]}
